measurement target: Neu5Ac(a2-6)Gal(b1-4)GlcNAc(b1-3)Gal(b1-4)GlcNAc
measurement protocol: glycan array binding signal (z-score within array); higher = stronger binding
experimental context: glycan notation: IUPAC condensed, linker removed
This excerpt belongs to a sample that is enriched for the strongest signals.

{"binder": "F17-L (Escherichia coli) (protein) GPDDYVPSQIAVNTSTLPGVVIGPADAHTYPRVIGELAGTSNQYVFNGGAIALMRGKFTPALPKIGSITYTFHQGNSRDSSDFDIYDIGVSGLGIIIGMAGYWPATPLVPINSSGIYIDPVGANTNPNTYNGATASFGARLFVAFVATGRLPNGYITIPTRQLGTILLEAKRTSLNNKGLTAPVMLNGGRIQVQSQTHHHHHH", "glycan array binding signal (z-score)": -0.069}
{"binder": "StdA (Salmonella typhimurium), Q8Z3Z0 (protein) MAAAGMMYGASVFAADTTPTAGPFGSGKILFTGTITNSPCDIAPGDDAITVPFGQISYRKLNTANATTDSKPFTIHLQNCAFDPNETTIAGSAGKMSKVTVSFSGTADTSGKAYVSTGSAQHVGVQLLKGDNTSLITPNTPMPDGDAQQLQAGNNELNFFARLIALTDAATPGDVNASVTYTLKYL", "glycan array binding signal (z-score)": -0.14}
{"binder": "Epa7 (Candida glabrata), Q6DTM6_CANGB (protein) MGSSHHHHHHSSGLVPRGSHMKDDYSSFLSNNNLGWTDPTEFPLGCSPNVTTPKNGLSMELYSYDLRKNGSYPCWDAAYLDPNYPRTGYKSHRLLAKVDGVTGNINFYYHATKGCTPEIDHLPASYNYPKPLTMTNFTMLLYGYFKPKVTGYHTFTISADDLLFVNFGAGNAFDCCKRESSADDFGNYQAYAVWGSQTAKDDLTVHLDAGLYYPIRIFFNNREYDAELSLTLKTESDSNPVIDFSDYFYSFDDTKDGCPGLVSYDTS", "glycan array binding signal (z-score)": -0.258}
